assay.procedure: Inhibition of Zika virus NS2B (45 to 96 residues)/N-terminal thrombin cleavage fused and His6-tagged NS3 (1 to 177 residues) protease expressed in Escherichia coli using Bz-Nle-Lys-Lys-Arg-AMC as substrate preincubated for 10 mins followed by substrate addition and measured for 5 mins by fluorophotometric analysis
Listing of entries alongside the reported Ki.
Respond with the bare value in µM.

N=C(N)NCCC[C@@H]1NC(=O)[C@H](CCCCN)NC(=O)CNC(=O)[C@@H]2CSC(=N2)c2cc(ccn2)C(=O)NCC[C@@H](C(N)=O)NC(=O)[C@H](CCCCN)NC1=O :: 14.3

### Prompt Requested field: Ki. Item: N=C(N)NCCC[C@@H]1NC(=O)[C@H](CCCCN)NC(=O)CNC(=O)[C@@H]2CSC(=N2)c2cc(ccn2)C(=O)NCCC[C@@H](C(N)=O)NC(=O)[C@H](CCCCN)NC1=O
### Response 1.76
